Tested on: SmLux
Assay: Computationally generated LgLux variants expressed in E. coli, tested in lysates with SmLux and substrate 1c
Format: biochemical
Conditions: 50 uM substrate 1c, before SmLux peptide addition
Experimental: LgLux sequences were designed computationally, and their activity measured as depicted schematically in FIG. 45. A library of the computationally generated LgLux variants were expressed in E. coli and tested in lysates. 20 uM of SmLux and 50 uM of substrate 1c was used for the screening. LgLux_4039 sequence is as set forth in SEQ ID NO:2773. […]
Baseline Signal (Normalized by expression) values for the molecules below.
Number only, please.

Example entries begin here.
* 5285 (protein) MTPEEIRANVERFYAALASGDWATAEALFDPGVTITLWDGTTFTSVAEFRAWFEEQFKTSKDALREIVSLEINGDVVRVLVRLTFTRDGKEEVVDLLQLFKFV | 188
* 5263 (protein) MTPEEIRANVLAFYAALASGDLAAAEALFDPGVTITLWDGTTFTSVAEFRAWFEAQFQTSKDALREIVDMRVEGDVVRVLVRLTFVRDGEEQVVDLLQLFKFV | 137.4
* 5110 (protein) MTPEEIIENVKKFYEALASGDLETAKSLFDPGTTITLWDGTTFTSLEEFLEWFEKQFEASKDAKREILSIEVEGNVVKVLVRLTYTKDGKEKVVDLLQLLKFV | 167.6

Exercise: Returns the measured Baseline Signal (Normalized by expression) for the input molecule. Input: 5279 (protein) MTPEEIRENVRAFYAALASGDLAAAKALFDPGVTITLWDGTTFTSVEEFRAWFEEQFQTSKDALREIVSLEIEGDVVRVLVRLTFTRNGETQVVDLLQLFKFV
Key: 111.8

Exercise: State the recorded Baseline Signal (Normalized by expression) for this entry: 5117 (protein) MTDEEIRANVRAFYAALASGDLETAKALFDPGTTITLWDGTTFTSLEEFLAWFEKQFKTSKDAKREIVSLEVEGDTVRVLVRLTYTKDGKEEVVDLLQLLKFV
Key: 154.8

Exercise: # input molecule: 5269 (protein) MTPEEIRENVRAFYAALASGDLAAAKALFDPGVTITLWDGTTFTSVEEFRAWFEKQFKTSKDALREIVSLEVEGDTVRVLVRLTFVRDGKEEVVDLLQLFKFV ; wanted: its Baseline Signal (Normalized by expression)
Key: 137.2

Exercise: Need Baseline Signal (Normalized by expression) of 5275 (protein) MTPEEIKENVLNFYAALASGDLEAAKALFDPGVTITLWDGTTFTSVEEFRAWFEKQFKTSKDALREIVSMEVEGDVVRVLVRLTFTRDGKVEEVDLLQLFKFV , thanks.
Key: 122.8

Exercise: Which Baseline Signal (Normalized by expression) value belongs to 5266 (protein) MTPEEIRANVRAFYAALASGDLAAAKALFDPGVTITLWDGTTFTSVEEFRAWFEEQFQTSKDALREIVSLRVEGDTVRVLVRLTFTRDGKVQEVDLLQLFKFV ?
Key: 129.8
